biological target: PSMA (Homo sapiens); test: NAALADase assay; assay type: biochemical
Sequence (Q04609 whole entry): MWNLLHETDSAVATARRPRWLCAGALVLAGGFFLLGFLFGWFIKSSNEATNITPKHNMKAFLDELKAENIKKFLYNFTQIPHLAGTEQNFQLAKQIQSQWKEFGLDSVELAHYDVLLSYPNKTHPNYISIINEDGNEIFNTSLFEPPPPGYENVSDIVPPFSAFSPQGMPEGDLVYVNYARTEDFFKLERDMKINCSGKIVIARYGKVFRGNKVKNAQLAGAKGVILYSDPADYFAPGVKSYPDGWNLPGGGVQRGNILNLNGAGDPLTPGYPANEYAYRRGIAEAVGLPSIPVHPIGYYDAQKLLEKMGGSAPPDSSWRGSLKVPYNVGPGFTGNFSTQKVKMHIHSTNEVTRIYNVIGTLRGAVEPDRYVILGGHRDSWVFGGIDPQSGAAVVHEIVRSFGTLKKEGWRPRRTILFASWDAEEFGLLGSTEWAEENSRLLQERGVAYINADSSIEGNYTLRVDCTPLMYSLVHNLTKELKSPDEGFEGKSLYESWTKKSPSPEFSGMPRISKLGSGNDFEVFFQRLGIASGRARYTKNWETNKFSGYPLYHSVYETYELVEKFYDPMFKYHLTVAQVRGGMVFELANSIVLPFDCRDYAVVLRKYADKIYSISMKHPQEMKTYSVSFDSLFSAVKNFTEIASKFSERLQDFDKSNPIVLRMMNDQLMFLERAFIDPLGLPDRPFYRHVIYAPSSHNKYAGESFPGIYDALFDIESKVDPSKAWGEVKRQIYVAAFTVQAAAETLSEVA
recordedMetric: pKi
Give only the number. pKi is defined as minus log10 of concentration in molar units.

What measured pKi goes with O=C(O)CCC(NC(=O)NC(CCCCNC(=O)CCCCCCC(=O)NC(CCCCN(Cc1ccccn1)Cc1ccccn1)C(=O)O)C(=O)O)C(=O)O (stereo not shown) [Compound L1] ?
7.82

---

target: PSMA (Homo sapiens); assay: NAALADase assay; format: biochemical; settings: LNCaP cell extracts; Cheng–Prusoff conversion
recordedMetric: pKi
As a rule, pKi stands for the negative log10 of the concentration, concentration in M.

Check out these entries, answers already filled in.
molecule: O=C(O)CCC(NC(=O)NC(CCCCNC(=O)CCCCCCC(=O)NC(CCCCN(Cc1ccc2ccccc2n1)Cc1ccc2ccccc2n1)C(=O)O)C(=O)O)C(=O)O.[Br-].[C-]#[O+].[C-]#[O+].[C-]#[O+].[Re+] (stereo not shown)
pKi: 9.30
//
molecule: O=C(O)CCC(NC(=O)NC(CCCCNC(=O)CCCCCCC(=O)NC(CCCCN(Cc1ccc2ccccc2n1)Cc1ccc2ccccc2n1)C(=O)O)C(=O)O)C(=O)O (stereo not shown)
pKi: 9.77
//
molecule: O=C(O)CCC(NC(=O)NC(CCCCNC(=O)CCCCCCCN(Cc1ccccn1)Cc1ccccn1)C(=O)O)C(=O)O.[Br-].[C-]#[O+].[C-]#[O+].[C-]#[O+].[Re+] (stereo not shown)
pKi: 9.04

Now turn to the next molecule.
Name the reported pKi value associated with the molecule O=C(O)CCC(NC(=O)NC(CCCCNC(=O)CCCCCCC(=O)NCCCCCCN(Cc1ccccn1)Cc1ccccn1)C(=O)O)C(=O)O.[Br-].[C-]#[O+].[C-]#[O+].[C-]#[O+].[Re+] (stereo not shown)
8.69

Provenance of the data: paper PMC3336105
